# Lookup of reported EC50 keyed by entry
MEASURED ON: Delta-type opioid receptor (Homo sapiens, UniProt P41143)
Sequence (P41143 whole entry): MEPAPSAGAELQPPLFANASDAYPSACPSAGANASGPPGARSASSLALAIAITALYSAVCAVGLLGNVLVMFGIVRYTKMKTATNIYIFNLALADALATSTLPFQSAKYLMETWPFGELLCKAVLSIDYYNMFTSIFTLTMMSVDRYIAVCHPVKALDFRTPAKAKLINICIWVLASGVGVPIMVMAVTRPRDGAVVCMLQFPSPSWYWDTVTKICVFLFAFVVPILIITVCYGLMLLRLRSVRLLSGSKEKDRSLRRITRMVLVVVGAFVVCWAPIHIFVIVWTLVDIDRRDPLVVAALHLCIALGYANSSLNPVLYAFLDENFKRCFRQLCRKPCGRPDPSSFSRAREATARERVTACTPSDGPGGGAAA
PROTOCOL SUMMARY: Agonist activity at human DOR expressed in CHOK1 cells assessed as inhibition of forskolin-stimulated cAMP accumulation incubated for 30 mins by luminescence assay
Type: functional, cell-based, CHO-K1

Answered cases to consult:
OCCC[C@@H]1[C@H]2CCC[C@]1(c1cccc(O)c1)CCN2CCc1ccccc1    > 10000 nM
O=C(O)CC[C@H]1[C@@H]2CCC[C@@]1(c1cccc(O)c1)CCN2CCc1ccccc1    > 10000 nM
COC(=O)CC[C@@H]1[C@H]2CCC[C@]1(c1cccc(O)c1)CCN2CCc1ccccc1    > 10000 nM
CCOC(=O)CC[C@H]1[C@@H]2CCC[C@@]1(c1cccc(O)c1)CCN2CCc1ccccc1    49.1 nM
COC(=O)CC[C@H]1[C@@H]2CCC[C@@]1(c1cccc(O)c1)CCN2CCc1ccccc1    > 10000 nM
COC(=O)CC[C@@H]1[C@@H]2CCC[C@@]1(c1cccc(O)c1)CCN2CCc1ccccc1    > 10000 nM

## Task Looking for the measured EC50 of COC(=O)/C=C/[C@H]1[C@@H]2CCC[C@@]1(c1cccc(O)c1)CCN2CCc1ccccc1 , can you help?
## Result 143 nM

## Task Looking for the measured EC50 of CCC[C@H]1[C@@H]2CCC[C@@]1(c1cccc(O)c1)CCN2CCc1ccccc1 , can you help?
## Result > 10000 nM
